System: Fibroblast
Assay: Incucyte cell viability with human fibroblast; further: filed as whole numbers so only -1 and 0 and 1 occur
Assay type: toxicity, cell-based
Settings: 18 h, 10 µM, compound concentration 10 uM, replicate number 1, timepoint 18 hours
Measured quantity: Growth Rate
Field format: numeric only.

Lookup: Item COc1cc(N2CCC(N3CCN(C)CC3)CC2)ccc1Nc1ncnc(Nc2ccccc2S(=O)(=O)C(C)C)n1 : provide Growth Rate
Found: 0

Lookup: Item CCOc1cc2ncc(C#N)c(Nc3ccc(OCc4ccccn4)c(Cl)c3)c2cc1NC(=O)/C=C/CN(C)C : provide Growth Rate
Found: 0

Lookup: Item NC(=O)c1cccc(-c2cc(Nc3ccc(OC(F)(F)F)cc3)ncn2)c1 : provide Growth Rate
Found: 0

Lookup: Item CO[C@H]1CC[C@H](CNc2ccc(S(=O)(=O)NC(=O)c3ccc(N4CCN(CC5=C(c6ccc(Cl)cc6)CC(C)(C)CC5)CC4)cc3Oc3cnc4[nH]ccc4c3)cc2[N+](=O)[O-])CC1 : provide Growth Rate
Found: 0

Lookup: Item CC1(C)C(=O)C(C)(C)c2cc(C(=O)Nc3ccc(C(=O)O)cc3)ccc21 : provide Growth Rate
Found: 0

Lookup: Item CN(C)[C@H]1CCN(c2cc(-c3ccccc3)nc3ccnn23)C1 [(S)-ZINC-3573] : provide Growth Rate
Found: 0

Lookup: Item O=C(NOCC1CC1)c1ccc(F)c(F)c1Nc1ccc(I)cc1Cl : provide Growth Rate
Found: 1

Lookup: Item Nc1cc(F)ccc1NC(=O)/C=C/c1cnn(C/C=C/c2ccccc2)c1 : provide Growth Rate
Found: 1

###

Test system: U2OS
Assay: Multiplex assay against U2OS
Type: toxicity, cell-based
Settings: human, 48 h, 1 µM, compound concentration 1 uM, replicate 2
Measured quantity: Population Tubulin-Different-Phenotype (%)
Enter your answer as a number in %; do not include the unit.

Lookup: Item C=C1/C(=C\C=C2/CCC[C@]3(C)[C@@H]([C@H](C)/C=C/[C@H](C)C(C)C)CC[C@@H]23)C[C@@H](O)C[C@@H]1O : provide Population Tubulin-Different-Phenotype (%)
Found: 11

Lookup: Item O=C(Nc1ccc(-n2nc(-c3cccnc3)cc2C(F)(F)F)cn1)c1ccc(-c2ccccc2)c(F)c1 : provide Population Tubulin-Different-Phenotype (%)
Found: 41

Lookup: Item CCn1c(=O)c(-c2ccc(-c3cncs3)cc2Cl)cc2cnc(Nc3ccc(N4CCN(C)CC4)cc3)nc21 : provide Population Tubulin-Different-Phenotype (%)
Found: 23

Lookup: Item CNc1cc(Oc2cc(C(=O)Nc3cc(N4CCN(C)CC4)cc(C(F)(F)F)c3)ccc2C)ncn1 : provide Population Tubulin-Different-Phenotype (%)
Found: 50

###

Tested on: U2OS
Experiment: Multiplex assay against U2OS
Type: toxicity, cell-based
Details: human, 24 h, 10 µM, compound concentration 10 uM, replicate 2
Condition met if Population Fragmented Nuclei (%) is below 20%. Condition not met if not; exact matches included in Condition not met.

Lookup: Here's an entry: Cc1cc(C)c(S(=O)(=O)N(Cc2ccc(-c3cccc(S(C)(=O)=O)c3)cc2)Cc2ccc(C(F)(F)F)o2)c(C)c1 . Is its Population Fragmented Nuclei (%) below 20%?
Found: Condition met

Lookup: Here's an entry: Cc1ccc2nc(NCCN)c3ncc(C)n3c2c1.O=C(O)C(F)(F)F.O=C(O)C(F)(F)F . Is its Population Fragmented Nuclei (%) below 20%?
Found: Condition not met

Lookup: Here's an entry: Cl.O=c1c2cccn2c2ccccc2n1CCCN1CCC(c2ccc(Cl)cc2)CC1 . Is its Population Fragmented Nuclei (%) below 20%?
Found: Condition met

Lookup: Here's an entry: CNC(=O)c1ccc(Nc2nc(OC3CCCC3)c3c(-c4ccc5nc(C)oc5c4)c[nH]c3n2)c(OC)c1 . Is its Population Fragmented Nuclei (%) below 20%?
Found: Condition not met

Lookup: Here's an entry: CCCS(=O)(=O)Nc1ccc(F)c(C(=O)c2c[nH]c3ncc(Cl)cc23)c1F . Is its Population Fragmented Nuclei (%) below 20%?
Found: Condition met

Lookup: Here's an entry: Cc1ccc(C(=O)Nc2cccc(C(F)(F)F)c2)cc1Nc1nc(-c2cccnc2)nc2c1cnn2C . Is its Population Fragmented Nuclei (%) below 20%?
Found: Condition not met

Lookup: Here's an entry: CCCS(=O)(=O)c1nc(NC2CC2)cc(-c2ccc3c(ccn3C3CC(C)(C)NC(C)(C)C3)c2)n1 . Is its Population Fragmented Nuclei (%) below 20%?
Found: Condition not met

Lookup: Here's an entry: O=C1NC(=O)C(c2cnc3ccccn23)=C1c1cn2c3c(cc(F)cc13)CN(C(=O)N1CCCCC1)CC2 . Is its Population Fragmented Nuclei (%) below 20%?
Found: Condition met

Lookup: Here's an entry: CCCn1c(=O)c2[nH]c(-c3cnn(Cc4cccc(C(F)(F)F)c4)c3)nc2n(CC)c1=O . Is its Population Fragmented Nuclei (%) below 20%?
Found: Condition met

Lookup: Here's an entry: CCn1c(=O)c(-c2ccc(-c3cncs3)cc2Cl)cc2cnc(Nc3ccc(N4CCN(C)CC4)cc3)nc21 . Is its Population Fragmented Nuclei (%) below 20%?
Found: Condition met

Lookup: Here's an entry: COc1ccc(-c2ccc3c(N4CCOCC4)nc(N4C[C@@H](C)O[C@@H](C)C4)nc3n2)cc1CO . Is its Population Fragmented Nuclei (%) below 20%?
Found: Condition not met

Lookup: Here's an entry: NC(=O)c1cccc(-c2cc(Nc3ccc(OC(F)(F)F)cc3)ncn2)c1 . Is its Population Fragmented Nuclei (%) below 20%?
Found: Condition met

Lookup: Here's an entry: COc1cc2ncnc(Nc3ccc(F)c(Cl)c3)c2cc1NC(=O)/C=C/CN1CCCCC1 [DACOMITINIB ANHYDROUS] . Is its Population Fragmented Nuclei (%) below 20%?
Found: Condition met

Lookup: Here's an entry: O=C1N/C(=N/c2ccccc2F)S/C1=C\c1ccc(C(=O)O)cc1 . Is its Population Fragmented Nuclei (%) below 20%?
Found: Condition met

Lookup: Here's an entry: O=C(Nc1cccnn1)N1CCC(=Cc2cccc(Oc3ccc(C(F)(F)F)cn3)c2)CC1 . Is its Population Fragmented Nuclei (%) below 20%?
Found: Condition met

Lookup: Here's an entry: C=C1/C(=C\C=C2/CCC[C@]3(C)[C@@H]([C@H](C)/C=C/[C@H](C)C(C)C)CC[C@@H]23)C[C@@H](O)C[C@@H]1O . Is its Population Fragmented Nuclei (%) below 20%?
Found: Condition not met

Lookup: Here's an entry: O=C(Nc1ccc(-n2nc(-c3cccnc3)cc2C(F)(F)F)cn1)c1ccc(-c2ccccc2)c(F)c1 . Is its Population Fragmented Nuclei (%) below 20%?
Found: Condition met
